Experiment: Metabolic stability in rat whole blood assessed as parent compound remaining measured after 15 mins by LC-MS analysis
Type: ADME, tissue-based
Details: read-out: Stability
assayReadout: remaining at 0.25 h (%)

- compoundString: "C=C[C@]1(C)C[C@@H](OC(=O)CS[C@@H]2C[C@H]3CC[C@@H](C2)N3C)[C@]2(C)[C@H](C)CC[C@]3(CCC(=O)[C@H]32)[C@@H](C)[C@@H]1O"
  experimentalValue: 99.2
- compoundString: "C=C[C@]1(C)C[C@@H](OC(=O)CSCCN(CC)CC)[C@]2(C)[C@H](C)CC[C@]3(CCC(=O)[C@H]32)[C@@H](C)[C@@H]1O"
  experimentalValue: 90.7
- compoundString: "C=C[C@]1(C)C[C@@H](OC(=O)CSc2nc3[nH]ccc3c(=O)[nH]2)[C@]2(C)[C@H](C)CC[C@]3(CCC(=O)[C@H]32)[C@@H](C)[C@@H]1O"
  experimentalValue: 88.4
